SUBJECT OF TEST: recombinant NAMPT wild type protein (Homo sapiens)
EXPERIMENT SUMMARY: NAMPT fluorescence assay
MEASUREMENT CONDITIONS: 50 ng NAMPT, 2 μM Nam, 10 point dose response; read-out: Fluorescence assay IC50 in range
This listing pairs compounds with measured IC50.

Below, 3 compounds whose answers are already recorded.
1) Cc1cnc(-c2ccc(F)nc2)c(OCC2CC(CNC(=O)c3ccc4nccn4c3)=NO2)c1 (single isomer, unassigned) [Example 11a] = 10 to 25 nM
2) CNC(=O)c1ccc(-c2ncccc2OCC2CC(CNC(=O)c3ccc4nccn4c3)=NO2)cc1F (racemic) [Example 6] = > 25 nM
3) O=C(NCC1=NOC(COc2cccnc2-c2cccnc2)C1)c1ccc2nccn2c1 (single isomer, unassigned) [Example 7a] = < 10 nM

**Query** Which IC50 value belongs to O=C(NCC1=NOC(COc2cccnc2-c2ccc(F)nc2)C1)c1ccc2nccn2c1 (racemic) [Example 4] ?
**Result** < 10 nM

---

This listing pairs compounds with measured pIC50.
Test system: MiaPaCa-2 cells
EXPERIMENT SUMMARY: Cytotoxicity assay in MiaPaCa-2 (XTT, 72 h)
Assay type: cell-based
MEASUREMENT CONDITIONS: XTT, read-out: Cell cytotoxicity assay IC50 in range
pIC50: −log10 of the molar value.

Below, 6 compounds whose answers are already recorded.
1) Cc1ccc(OCC2CC(CNC(=O)c3ccc4nccn4c3)=NO2)c(-c2ccc(F)nc2)n1 (single isomer, unassigned) [Example 12a] = < 6.60
2) Cc1cnc(-c2ccc(F)nc2)c(OCC2CC(CNC(=O)c3ccc4nccn4c3)=NO2)c1 (single isomer, unassigned) [Example 11b] = > 7.30
3) O=C(NCC1=NOC(COc2cccnc2-c2ccc(Cl)nc2)C1)c1ccc2nccn2c1 (single isomer, unassigned) [Example 8a] = < 5.00
4) O=C(NCC1=NOC(COc2cccnc2-c2ccc(F)nc2)C1)c1ccc2nccn2c1 (single isomer, unassigned) [Example 4b] = > 7.30
5) O=C(NCC1=NOC(COc2cccnc2-c2ccc(F)nc2)C1)c1ccc2nccn2c1 (single isomer, unassigned) [Example 4a] = < 6.60
6) O=C(NCC1=NOC(COc2cc(F)cnc2-c2ccc(F)nc2)C1)c1ccc2nccn2c1 (single isomer, unassigned) [Example 9b] = > 7.30

**Query** Find pIC50 (MiaPaCa-2 cells) for the entry O=C(NCC1=NOC(COc2cc(F)cnc2-c2ccc(F)nc2)C1)c1ccc2nccn2c1 (single isomer, unassigned) [Example 9a]
**Result** < 6.60

---

SUBJECT OF TEST: recombinant NAMPT wild type protein (Homo sapiens, UniProt P43490)
Sequence (P43490 whole entry): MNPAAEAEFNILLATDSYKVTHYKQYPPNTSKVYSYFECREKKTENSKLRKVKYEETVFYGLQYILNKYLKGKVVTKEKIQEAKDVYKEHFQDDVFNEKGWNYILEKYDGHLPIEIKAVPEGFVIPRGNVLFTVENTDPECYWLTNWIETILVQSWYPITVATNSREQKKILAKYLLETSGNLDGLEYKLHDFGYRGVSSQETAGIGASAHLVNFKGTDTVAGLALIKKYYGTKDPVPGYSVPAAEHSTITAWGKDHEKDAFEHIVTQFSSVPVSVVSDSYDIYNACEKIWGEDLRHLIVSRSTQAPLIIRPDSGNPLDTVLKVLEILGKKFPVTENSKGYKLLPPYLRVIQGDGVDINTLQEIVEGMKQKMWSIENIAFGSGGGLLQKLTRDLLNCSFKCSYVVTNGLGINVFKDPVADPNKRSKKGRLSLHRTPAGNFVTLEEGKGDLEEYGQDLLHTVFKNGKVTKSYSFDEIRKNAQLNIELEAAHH
EXPERIMENT SUMMARY: NAMPT fluorescence assay
MEASUREMENT CONDITIONS: 50 ng NAMPT, 2 μM Nam, 10 point dose response; read-out: Fluorescence assay IC50 in range
METRIC: IC50

1) O=C(NCC1=NOC(COc2cc(Cl)cnc2-c2ccc(F)nc2)C1)c1ccc2nccn2c1 (racemic) = 10 to 25 nM

**Query** Which IC50 value belongs to Cc1cc(NC(=O)NCC2=NOC(COc3cccnc3-c3cnn(C)c3)C2)ccn1 (racemic) ?
**Result** 10 to 25 nM

**Query** Likewise for Cc1cc(NC(=O)NCC2=NOC(COc3cccnc3-c3ccc(F)nc3)C2)ccn1 (racemic) ?
**Result** < 10 nM

**Query** Likewise for Cc1ccc(OCC2CC(CNC(=O)c3ccc4nccn4c3)=NO2)c(-c2ccc(F)nc2)n1 (racemic) [Example 12] ?
**Result** > 25 nM

**Query** Likewise for Cc1cnc(-c2ccc(F)nc2)c(OCC2CC(CNC(=O)c3ccc4nccn4c3)=NO2)c1 (racemic) [Example 11] ?
**Result** 10 to 25 nM

**Query** Likewise for O=C(NCC1=NOC(COc2cc(F)cnc2-c2ccc(F)nc2)C1)c1ccc2nccn2c1 (single isomer, unassigned) [Example 9a] ?
**Result** < 10 nM

**Query** Likewise for O=C(NCC1=NOC(COc2cccnc2-c2ccc(F)nc2)C1)Nc1ccnnc1 (racemic) ?
**Result** > 25 nM

---

SUBJECT OF TEST: recombinant NAMPT wild type protein (Homo sapiens, UniProt P43490)
EXPERIMENT SUMMARY: NAMPT fluorescence assay
MEASUREMENT CONDITIONS: 50 ng NAMPT, 2 μM Nam, 10 point dose response; read-out: Fluorescence assay IC50 in range
pIC50: −log10 of the molar value.
This listing pairs molecules with measured pIC50.

Below, 3 molecules whose answers are already recorded.
1. O=C(NCC1=NOC(COc2cccnc2-c2cccnc2)C1)c1ccc2nccn2c1 (racemic) [Example 7] = 7.60 to 8.00
2. O=C(NCC1=NOC(COc2cc(Cl)cnc2-c2cccnc2)C1)c1ccc2nccn2c1 (racemic) [Example 13] = > 8.00
3. O=C(NCC1=NOC(COc2cc(F)cnc2-c2ccc(F)nc2)C1)c1ccc2nccn2c1 (single isomer, unassigned) [Example 9b] = 7.60 to 8.00

**Query** Which pIC50 value belongs to O=C(NCC1=NOC(COc2cccnc2-c2ccc(Cl)nc2)C1)c1ccc2nccn2c1 (racemic) [Example 8] ?
**Result** 7.60 to 8.00

**Query** Likewise for Cn1cc(-c2cccnc2OCC2CC(CNC(=O)c3ccc4nccn4c3)=NO2)cn1 (racemic) [Example 1] ?
**Result** > 8.00

**Query** Likewise for O=C(NCC1=NOC(COc2cc(F)cnc2-c2ccc(F)nc2)C1)c1ccc2nccn2c1 (racemic) [Example 9] ?
**Result** 7.60 to 8.00

**Query** Likewise for O=C(NCC1=NOC(COc2cccnc2-c2ccc(F)nc2)C1)c1ccc2nccn2c1 (single isomer, unassigned) [Example 4b] ?
**Result** > 8.00

**Query** Likewise for Cc1cnc(-c2ccc(F)nc2)c(OCC2CC(CNC(=O)c3ccc4nccn4c3)=NO2)c1 (single isomer, unassigned) [Example 11b] ?
**Result** 7.60 to 8.00

**Query** Likewise for Cn1cc(-c2ncccc2OCC2CC(CNC(=O)c3ccc4nccn4c3)=NO2)cn1 (racemic) [Example 5] ?
**Result** > 8.00

**Query** Likewise for O=C(NCC1=NOC(COc2cccnc2-c2ccc(F)nc2)C1)c1ccc2nccn2c1 (single isomer, unassigned) [Example 4a] ?
**Result** > 8.00

**Query** Likewise for O=C(NCC1=NOC(COc2cc(Cl)cnc2-c2cccnc2)C1)c1ccc2nccn2c1 (single isomer, unassigned) [Example 13a] ?
**Result** < 7.60

**Query** Likewise for O=C(NCC1=NOC(COc2cccnc2-c2ccc(F)nc2)C1)Nc1ccncc1 (racemic) [Example 17] ?
**Result** > 8.00

**Query** Likewise for N#Cc1ccc(OCC2CC(CNC(=O)c3ccc4nccn4c3)=NO2)c(-c2ccc(F)nc2)n1 (racemic) [Example 10] ?
**Result** 7.60 to 8.00

**Query** Likewise for Cc1ccc(OCC2CC(CNC(=O)c3ccc4nccn4c3)=NO2)c(-c2ccc(F)nc2)n1 (single isomer, unassigned) [Example 12b] ?
**Result** 7.60 to 8.00

**Query** Likewise for O=C(NCC1=NOC(COc2ncccc2-c2ccc(F)nc2)C1)c1ccc2nccn2c1 (racemic) [Example 2] ?
**Result** > 8.00

**Query** Likewise for O=C(NCC1=NOC(COc2cc(Cl)cnc2-c2cccnc2)C1)c1ccc2nccn2c1 (single isomer, unassigned) [Example 13b] ?
**Result** 7.60 to 8.00

**Query** Likewise for O=C(NCC1=NOC(COc2cccnc2-c2ccc(Cl)nc2)C1)c1ccc2nccn2c1 (single isomer, unassigned) [Example 8b] ?
**Result** < 7.60

**Query** Likewise for Cc1ccc(OCC2CC(CNC(=O)c3ccc4nccn4c3)=NO2)c(-c2ccc(F)nc2)n1 (single isomer, unassigned) [Example 12a] ?
**Result** 7.60 to 8.00

---

System: MiaPaCa-2 cells
EXPERIMENT SUMMARY: Cytotoxicity assay in MiaPaCa-2 (XTT, 72 h)
Type: cell-based
MEASUREMENT CONDITIONS: Homo sapiens, MIA PaCa-2, 72 h, 1 μM, DMSO control = 0% inhibition, read-out: Cell cytotoxicity assay (% Inhibition at 1 μM)
This listing pairs compounds with measured inhibition at 1 µM.
Number in %, nothing else.

Below, 5 compounds whose answers are already recorded.
1) O=C(NCC1=NOC(COc2ccncc2-c2ccc(F)nc2)C1)c1ccc2nccn2c1 (racemic) = 5
2) O=C(NCC1=NOC(COc2cccnc2-c2cccnc2)C1)c1ccc2nccn2c1 (racemic) = 90
3) O=C(NCC1=NOC(COc2cccnc2-c2ccc(F)nc2)C1)Nc1ccnnc1 (racemic) = 90
4) CNC(=O)c1ccc(-c2ncccc2OCC2CC(CNC(=O)c3ccc4nccn4c3)=NO2)cc1F (racemic) = 15
5) N#Cc1ccc(OCC2CC(CNC(=O)c3ccc4nccn4c3)=NO2)c(-c2ccc(F)nc2)n1 (single isomer, unassigned) [Example 10a] = 100

**Query** Which inhibition at 1 µM value belongs to Cc1cc(NC(=O)NCC2=NOC(COc3cccnc3-c3cnn(C)c3)C2)ccn1 (racemic) ?
**Result** 17

**Query** Likewise for N#Cc1ccc(OCC2CC(CNC(=O)c3ccc4nccn4c3)=NO2)c(-c2ccc(F)nc2)n1 (racemic) [Example 10] ?
**Result** 95
